test system: 786-0 renal; test: NCI-60 one-dose screen, 48 h (100 = growth as untreated, 0 = no growth, -100 = all killed); conditions: 10 µM unless noted
Compounds without any hit were thinned out: in the full panel of roughly 83,000, 20% have a hit.
The entries below are paired with their reported growth.

compound | u | growth
COc1cc(NCC(C)(O)CN(CC(C)C)CC(C)C)c2nc(C)ccc2c1 (stereo not given) | % | 86.6
COc1ccc(/C=C2\COc3ccc(-c4ccccc4)cc3C2=O)cc1O | % | -21.8
O=C1c2ccccc2C(=O)c2c(NCCN=Cc3ccccc3O)cccc21 | % | -48.4
COc1ccc(C2CC(c3cccc(Nc4ccncc4)c3)=NN2c2ccccc2)cc1 (stereo not given) | % | -4.64
NS(=O)(=O)c1cccc(NC(=O)C(=O)C2C(=O)Nc3ccccc32)c1 (stereo not given) | % | 114
CN1CCN(c2cc(F)c(NC3=C(Cl)C(=O)c4ncccc4C3=O)c(F)c2)CC1 | % | -72
CC(=O)c1c(C)[nH]c(-c2nc3ccc(N4CCN(C)CC4)cc3[nH]2)c1-c1ccccc1 | % | 85.9
COc1ccc2c(c1)OC1=C(C(=O)OC1)C2c1cc(OC)c(OC)c(OC)c1 (stereo not given) | % | 36.8
S=c1[nH]cccc1-c1nnc2n1Nc1nc3ccccc3cc1CS2 | % | 100
O=C(Nc1ccc2ncnc(Nc3ccc(Oc4cccc(F)c4)c(Cl)c3)c2c1)c1ccc(CN2CCOCC2)cc1 | % | 42.2

###

The entries below are paired with their reported growth.
tested on: IGROV1 ovarian; assay: NCI-60 one-dose screen, 48 h (100 = growth as untreated, 0 = no growth, -100 = all killed); conditions: 10 µM unless noted
About 83,000 compounds went through this panel and 20% of them were active in at least one assay; those are over-represented in the sample as a whole.
endpoint: growth (%)

compound | subject-of-test | u | number
CN1C(=O)N(C)[C@H]2NC(NN)=N[C@H]21 | IGROV1 ovarian | % | 98.9
CC1(C)CN(Cc2ccccc2)CCN1Cc1ccccc1 | IGROV1 ovarian | % | 101
COc1ccc(C2=C(c3ccccc3)c3ccc(OC(C)=O)cc3OC2(C)C)cc1 | IGROV1 ovarian | % | 96.7
O=C(Nc1ccc(Cl)cc1)Nc1ccc(Cl)c(Cl)c1 | IGROV1 ovarian | % | 21.5
O=C(N=Nc1c(O)[nH]c2ccc(F)cc12)c1cc2ccccc2[nH]1 | IGROV1 ovarian | % | 79.3
CC1(C)CN(c2cnc(C(=O)Nc3cc(F)cc4cccnc34)cn2)CCN1 | IGROV1 ovarian | % | 36.2
Cc1ccccc1C(c1ccccc1)c1ccccc1C | IGROV1 ovarian | % | 92.2
CCN(CC)CCCCCCNc1cc(OC)cc2cccnc12 | IGROV1 ovarian | % | 88.8
COc1ccccc1-c1c(-c2ccc(Cl)cc2)c2cc3c(cc2[nH]c1=O)OCCO3 | IGROV1 ovarian | % | 77
CN1CCN(C(=O)[C@]2(C)CC[C@]3(C)CC[C@]4(C)C(=CC(=O)[C@@H]5[C@@]6(C)CCC(=O)NC(C)(C)[C@@H]6CC[C@]54C)[C@@H]3C2)CC1 | IGROV1 ovarian | % | 99.9
O=C1Nc2c(ccc(Cl)c2Cl)/C1=C/c1ccc([N+](=O)[O-])cc1 | IGROV1 ovarian | % | 98.6
CCN1C(=O)N(CC)C2NC(SC)=NC21 (stereo unspecified) | IGROV1 ovarian | % | 102
O=S(=O)(NCCCNc1nccc(-c2c(-c3cccc(O)c3)nc3occn23)n1)c1ccc(F)cc1 | IGROV1 ovarian | % | 76.2
COc1ccc2c(c1)OC1=C(C(=O)OC1)C2c1cc(OC)c(OC)c(OC)c1 (stereo unspecified) | IGROV1 ovarian | % | 49
COc1cccc(CCC(=O)c2cc3c(N)c(C(=O)Nc4cccc(Cl)c4C)sc3nc2C)c1 | IGROV1 ovarian | % | 24.4
COc1cc2nc(Cc3ccc(C)cc3)[nH]c(=O)c2cc1OC | IGROV1 ovarian | % | 109
COc1cccc(NC(=O)c2cccc(-c3cc(=O)c4c(OC)c(OC)c(OC)cc4o3)c2)c1 | IGROV1 ovarian | % | 53.3
CN1CCN(c2c(F)cc(NC3=C(Cl)C(=O)c4ncccc4C3=O)cc2F)CC1 | IGROV1 ovarian | % | 57.4
COC(=O)C1=C(C(=O)ONCCN(C)C)C2C=CC1(C(Cc1ccccc1)Nc1ccc(F)cc1)O2 (stereo unspecified) | IGROV1 ovarian | % | 92.4
O=C1NC(=S)NC(=O)C1=Cc1cccc(C=C2C(=O)NC(=S)NC2=O)c1 | IGROV1 ovarian | % | 107
O=c1[nH]nc(-c2ccc(Br)cc2)cc1Cc1ccc(O)cc1 | IGROV1 ovarian | % | 82.4

###

System: NCI-H23 lung
Assay: NCI-60 one-dose screen, 48 h
Settings: 10 µM unless noted
Protocol: Growth inhibition of the NCI-H23 human Non-Small Cell Lung tumor cell line is measured as a screen for anti-cancer activity. Cells are grown in 96 well plates and exposed to the test compound for 48 hours. Compounds are tested at a single concentration, which is 10^-5 M for most compounds. The reported endpoint is percent growth (GI% or GIPRCNT), where numbers from 0 - 100% represent growth inhibition, and numbers from -100% - 0 represent cell death. […]
The panel holds about 83,000 compounds, 20% with a hit somewhere; the sample as a whole holds those more often. Calls of active or inactive are those of the source. The calls were made as follows: active = growth percent below 10; inactive = the rest.
Possible outcomes: True for active, False for inactive

compound | class-name
NS(=O)(=O)c1cccc(NC(=O)C(=O)C2C(=O)Nc3ccccc32)c1 (stereo not given) | False
O=C(O)c1ccc[n+](CC(=O)N2CCN(c3cc4c(cc3F)c(=O)c(C(=O)O)cn4C3CC3)CC2)c1 | False
O=C(Cc1ccc(/C=C/C(=O)c2ncc[nH]2)cc1)Nc1ccc(C(F)(F)F)cc1 | False
COC(=O)N[C@H]1CCc2cc(OC)c(OC)c(OC)c2-c2ccc(SC)c(=O)cc21 | False
CC(O)(CO)c1ccccc1 (stereo not given) | False
O=C(NNc1nc(Cl)nc(N2CCN(C(c3ccccc3)c3ccccc3)CC2)n1)c1ccccc1 | True
ClCC1(Cn2cnc3c(Cl)nc(Cl)nc32)COC1 | False
CCNC(=O)c1[nH]cc(-c2ccc(OC)cc2)c1-c1cc(OC)c(OC)c(OC)c1 | False
COc1cc(-c2cc(=O)oc3cc(O)ccc23)cc(OC)c1OC | False
O=C1c2ccccc2C(=O)c2c(NCCN=Cc3ccccc3O)cccc21 | False

###

test system: HS 578T breast; experiment: NCI-60 one-dose screen, 48 h; conditions: 10 µM unless noted
About 83,000 compounds went through this panel and 20% of them were active in at least one assay; those are over-represented in the sample as a whole. Calls of active or inactive are those of the source. Rule for the calls: active = growth percent below 10; inactive = the rest.
Possible outcomes: t for active, f for inactive

molecule | subject-of-test | class-name
COc1cc2nc(-c3ccc(C(F)(F)F)cc3)cc(OCCN3CCC(O)CC3)c2cc1OC | HS 578T breast | f
O=C1Nc2c(ccc(Cl)c2Cl)/C1=C/c1ccccn1 | HS 578T breast | f
N#Cc1c(NC(=O)c2cccc(Br)c2)sc2c1CCCC2 | HS 578T breast | f
Cc1nccc2c3ccc(OCc4cn(-c5ccc(Cl)cc5)nn4)cc3n(CCCc3ccccc3)c12 | HS 578T breast | t
CCCCCCC/C=C/[C@H]1O[C@]2(O)C(=O)C=C3C[C@@H](O[C@@H]4O[C@H](CO)[C@@H](O)C(O)[C@@H]4O)C[C@@H]3[C@H]2C=C1C (stereo not given in full) | HS 578T breast | f
COc1cc(/C=C/C(=O)c2c(C)oc3nc[nH]c(=O)c23)ccc1O | HS 578T breast | f
COc1ccc(-n2cc(-c3cc(OC)c(OC)c(OC)c3)n(C(C)=O)c2=O)cc1 | HS 578T breast | f
COc1cc(C2CC(c3cccc(Nc4ccncc4)c3)=NN2c2cc(Cl)cc(Cl)c2)cc(OC)c1OC (stereo not given) | HS 578T breast | t
CC1(C)CC[C@]2(C(=O)NCC#CCN3CCOCC3)CC[C@]3(C)C(=CC[C@@H]4[C@@]5(C)Cc6c([nH]c7ccccc67)C(C)(C)[C@@H]5CC[C@]43C)[C@@H]2C1 | HS 578T breast | f
CNC(=O)c1c(NC(=O)c2ccc(C(C)C)cc2)sc2c(CN(C)C)c(O)ccc12 | HS 578T breast | f
CN1CCN(c2ccc3nc(-c4cc(C(C)(C)C)c(O)c(C(C)(C)C)c4)[nH]c3c2)CC1 | HS 578T breast | f
COc1ccc(/C(C)=N/NC(=O)CSc2nc3ccccc3c(=O)n2Cc2ccc(S(N)(=O)=O)cc2)c(OC)c1 | HS 578T breast | f
COC(=O)Nc1nc2ccc(C(=O)c3cccc(I)c3)cc2[nH]1 | HS 578T breast | f
COc1cc2nc(-c3ccc(-c4nn[nH]n4)cc3)[nH]c(=O)c2cc1OC | HS 578T breast | f
Nc1nnc2cc(Cl)ccc2n1 | HS 578T breast | f
CCC1(CC)NC(=O)c2c(c3ccc(Cl)c(Cl)c3n2C)C1C#N (stereo not given) | HS 578T breast | f
CNC(=O)Nc1ccc(-c2nc(N3CCOCC3)nc3c2cnn3C2CCOCC2)cc1 | HS 578T breast | t
CCC(C)C(N)C(=O)NNc1n[nH]c(=S)n1N (stereo not given) | HS 578T breast | f
CCCCCCCCCCCCCCCCCCOc1ccccc1N | HS 578T breast | f
CN1C(=O)N(C)[C@H]2NC(NN)=N[C@H]21 | HS 578T breast | f
